Reported values of self-cleavage kobs at 10000 uM GlcN6P for individual entries
B1: glmS ribozyme (parent)
chain: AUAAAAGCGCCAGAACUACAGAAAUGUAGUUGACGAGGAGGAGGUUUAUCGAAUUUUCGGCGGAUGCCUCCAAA

Variants of: B1
Assay overview: self-cleavage kobs at 10000 uM GlcN6P; higher = faster cleavage; RNA array
Experimental context: with glucosamine-6-phosphate
Fewer inactive variants are shown than the library holds.
Readout: self-cleavage kobs at 10000 uM GlcN6P

- AUAAAAGCGCCAGAGCUACAGAAAUGUAGUUCACGAGGAGGAGGUUUAUCGAAUUUUCCGCGGAUGCCUCCAAA [A15G G32C G59C]: < 1e-05 s⁻¹
- AUAAAAGCGCCAGAACUACAGAAAUGUAGUUGACAAGGAGGAGGUUUAUCGAAUUUUCGGCUGAUGCCUCCAAA [G35A G62U]: < 1e-05 s⁻¹
- AUAAAAUCGCCAGAUCUACAGAAAUGUAGUUGACGAGGAGGAGGUUUAUGGAUUGUUCGGCUGAUGCCUCCAAA [G7U A15U C50G A53U U55G G62U]: 7.67e-05 s⁻¹
- AUAAAAGCGCCAGAACUACAGAAAUGUAGUAGACGAGGAGGAGGUUUAUCUAAUUUUCGGCGGAUGCAUCCAAA [U31A G51U C68A]: < 1e-05 s⁻¹
- AUAAAAGCGCCAGAACUACAGAAAUGUAUUUGACGAGGAGGAGGUUUAUCGAAUUUUCGGGGGAUGCCUCCAAA [G29U C61G]: < 1e-05 s⁻¹
- AUAAAAGCGCUAGAACUACAGAAAUGUAAUUUACGAGGAGGAGGUUUAUGGAAUUUUCGGCGGAUGCCUCCAAA [C11U G29A G32U C50G]: 7.84e-05 s⁻¹
- AUAAAAGCGCCAGAACUACAGAAAUGUAGUUGCCAAGGAGGAGGUGUAUUGAAUUGUCGGCGGAUGCCUCAAAA [A33C G35A U46G C50U U56G C71A]: < 1e-05 s⁻¹
- AUAAAAGCGCCAGAACUACAGAAAUGUAGUUGACAAGGAGGAGGUUUAUCGAAUUAUCGGCGAAUGCCUCCAAA [G35A U56A G63A]: < 1e-05 s⁻¹
- AUAAAAGCGCCAGAACUACAGAAAUGUAGUUGACGAGGAGGAGGUUUAUCGAUUUUUCGGCGGAUCCCUCCAAA [A53U G66C]: 0.000387 s⁻¹
- AUAAAAGCGCCAGAACUACAGAAAUGUAGUUGACGAGGAGGAGGUUUAUCGAUUUUUCGGCUGAUGCCUCCAAA [A53U G62U]: < 1e-05 s⁻¹
- AUAAAAGCGCCAGAACUACAGAAAUGUAGUUGACGAGGAUGAUGUUUAUCGAACUUUCGGCGGAUGCCUCCAAA [G40U G43U U54C]: < 1e-05 s⁻¹
- AUAAAAGCGCCAGAAGUACAGAAAUGUAGGUGACGAGGAGGAGGUUUAUCGAAUUUUCGGCGGAUGCCUCCAAA [C16G U30G]: 0.000246 s⁻¹
- AUAAAAGCGCCGGAAUUACAGAAAUGUAGUUGACGAGGAGGAGGUUUAUCGAAUUUUCGGCGGAUGCCUCCAAA [A12G C16U]: 0.00119 s⁻¹
- AUAAAAGCGCCAGAACUACAGAAAUGUAGUUGCCGAGGAGGAGGUUUAUCGAAUUUUCGGCGGAUGCAUCCAAA [A33C C68A]: < 1e-05 s⁻¹
- AUAAAAGCGUCAGAACUACAGAAAUGUAGUUGACGAGGAGGAGGUUUAUCGAAUUUUCUGCGGAUGCCUCCAAA [C10U G59U]: 2.16e-05 s⁻¹
- AUAAAAGCGCCAGAAGUACAGAAAUGUAGUUGACGAGGAGGAGGUUGAUCGAAUUUUCGGCGGAUGCCUCCAAA [C16G U47G]: 0.000565 s⁻¹
- AUAAAAGCGUCAGAACUACAGAAAUGUAGUUGCCGAGGAGGAGGUUGAUCUAAUUUUGGGCGGUUGCCUACAAA [C10U A33C U47G G51U C58G A64U C70A]: 0.000101 s⁻¹
- AUAAAAGCGCAAGAAAUACAGAAAUGUAGUUGACGAGGAGGAGGUUUAUCGAAUUUUCGGCGGAUGCCUCCAAA [C11A C16A]: 2.86e-05 s⁻¹
- AUAAAAGCGCCAGAACUACAGAAAUGUAGUUGACGAUGAGGACGUUUAUCGAAUUUUCGGCGGAUUCCUCCAAA [G37U G43C G66U]: < 1e-05 s⁻¹
- AUAAAAGGGCCAGAACUACAGAAAUGUAUUUGCCGAGGAGGAGGUUUAUCGAAUUUUCGGCGGAUGCAUCCAAA [C8G G29U A33C C68A]: < 1e-05 s⁻¹
- AUAAAUGCGCCAGAACUACAGAAAUGUAGUUGGUGAGGAGGAGUUUUACCGAAUUUGCGGCGGAUGCCUCCAAA [A6U A33G C34U G44U U49C U57G]: < 1e-05 s⁻¹
- AUAAAAGUGCCAGAACUACAGAAAUGUAGUUGACGAGGAGGAGGUUUAUCGAAUUUUCUGCGGAUGCCUCCAAA [C8U G59U]: < 1e-05 s⁻¹
